Parameter: Kd. Scope: all listed entries.
Experimental target: T1, EsCas13d, nuclease-dead (Eubacterium siraeum, UniProt B0MS50, R295A;H300A;R849A;H854A)
T1 sequence: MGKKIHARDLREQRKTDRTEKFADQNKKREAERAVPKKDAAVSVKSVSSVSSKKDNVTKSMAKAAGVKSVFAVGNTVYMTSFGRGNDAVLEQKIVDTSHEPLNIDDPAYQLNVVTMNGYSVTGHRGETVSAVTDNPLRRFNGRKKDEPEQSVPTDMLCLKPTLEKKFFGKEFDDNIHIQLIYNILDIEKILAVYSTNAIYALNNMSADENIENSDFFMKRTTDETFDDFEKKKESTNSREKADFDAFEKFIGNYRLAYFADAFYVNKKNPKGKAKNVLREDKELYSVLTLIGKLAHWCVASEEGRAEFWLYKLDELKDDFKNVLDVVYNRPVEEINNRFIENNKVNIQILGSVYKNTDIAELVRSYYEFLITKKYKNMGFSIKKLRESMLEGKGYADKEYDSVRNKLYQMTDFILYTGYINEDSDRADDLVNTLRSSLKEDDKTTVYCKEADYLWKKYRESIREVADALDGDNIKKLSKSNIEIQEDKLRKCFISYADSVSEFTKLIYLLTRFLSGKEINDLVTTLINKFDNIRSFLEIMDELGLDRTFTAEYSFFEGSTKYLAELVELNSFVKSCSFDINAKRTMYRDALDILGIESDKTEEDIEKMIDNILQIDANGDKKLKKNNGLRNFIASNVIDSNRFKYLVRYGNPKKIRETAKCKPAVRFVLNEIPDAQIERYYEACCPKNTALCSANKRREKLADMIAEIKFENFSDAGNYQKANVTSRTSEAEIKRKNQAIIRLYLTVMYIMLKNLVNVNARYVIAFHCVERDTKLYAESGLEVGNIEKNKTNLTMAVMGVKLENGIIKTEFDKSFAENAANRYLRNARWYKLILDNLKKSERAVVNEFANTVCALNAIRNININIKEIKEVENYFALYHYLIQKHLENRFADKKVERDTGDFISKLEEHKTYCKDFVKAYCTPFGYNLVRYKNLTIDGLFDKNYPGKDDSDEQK
Protocol details: crRNA (strand 1, pre-loaded); Mg2+; 40 mM Tris-HCl pH 7.5, 150 mM NaCl, 6 mM MgCl2, 1 mM DTT, 0.1% Tween-20, 0.2 mg/ml BSA; 25 C; 10 min per concentration, then washed
Experimental conditions: tags: His6-TwinStrep-SUMO cleaved; N-terminal SNAP kept (SNAP-Surface 488); label: 3' end held by stalled T7 RNA polymerase
Give the quantity in nM, number only.

Recorded results for 2 binders are shown here.
Binder: target 3 G3A,U22A (mixed) RNA 1: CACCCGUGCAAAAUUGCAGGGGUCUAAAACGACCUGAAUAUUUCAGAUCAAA RNA 2: GGGAAUGGAUCCACAUCUACGAAUUCGUUAUUGAUCUGAAAUAUUCAGAUCUGCAGAUCGGAAGAGCACACGU
Kd, nM: 47
//
Binder: target 1 C2A,G13A (mixed) RNA 1: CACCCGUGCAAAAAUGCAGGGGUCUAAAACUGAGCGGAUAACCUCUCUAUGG RNA 2: GGGAAUGGAUCCACAUCUACGAAUUCGUACCAUAGAGAAGUUAUCCGCUAACCGAGAUCGGAAGAGCACACGU
Kd, nM: 5.06

Now for the binder whose Kd we want.
Q: Please list Kd recorded for the binder target 1 insG 3' of 7,insU 3' of 7 (mixed) RNA 1: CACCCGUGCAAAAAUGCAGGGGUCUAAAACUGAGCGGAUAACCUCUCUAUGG RNA 2: GGGAAUGGAUCCACAUCUACGAAUUCGUACCAUAGAGAGGUUAUCGUCGCUCACCGAGAUCGGAAGAGCACACGU
Ans: 9.26
